Value source: ChEMBL document CHEMBL4513216

Experiment: Toxicity liver stage against HepG2, at 10uM
Assay type: cell-based
Set-up: test concentration 10 uM, cell line HepG2-A16-CD81EGFP
Settings: human, HepG2-A16-CD81EGFP cells; read-out: INHIBITION
Below, each of the compounds is paired with its reported cytotoxicity at 10 µM value.
Output spec: scalar in %, unitless text.

Example entries begin here.
COMPOUND	cytotoxicity at 10 µM / %
CC(C)C(N)CNS(=O)(=O)Cc1cccc2cccnc12 (stereo unspecified)	-9.32
Cc1ccc(C(=O)O)cc1NC(=O)C1CC=CC1	-7.25

// recorded cytotoxicity at 10 µM for `CCCC1(CNCc2ncc[nH]2)CCC1` : 2.24

Recorded result, `CCOC(=O)C1(O)CCN(C(=O)Nc2cccc(F)c2)CC1` , cytotoxicity at 10 µM: -144

Per the record, COCC(=O)N1CCC2(COCc3cnc(NCc4ccco4)nc32)C1 (stereo unspecified) has cytotoxicity at 10 µM of -1.75

cytotoxicity at 10 µM reported for this compound O=C1NCCCCC1SCc1coc(-c2ccccc2)n1 (stereo unspecified) : 11.6

* * *

// reported cytotoxicity at 10 µM for each item listed
Assay: Toxicity liver stage against HepG2, at 10uM
Format: cell-based
Set-up: test concentration 10 uM, cell line HepG2-A16-CD81EGFP
Conditions: human, HepG2-A16-CD81EGFP cells; read-out: INHIBITION
Provide the reading as a plain figure in %.

# example entries with known answers
COMPOUND	cytotoxicity at 10 µM / %
CC(C)c1nn(C)c(N(C)C)c1CNCCC(=O)N(C)C	-6.02
CNCCNc1ccc(-c2nc(-c3cccc(OC)c3OC)no2)cn1	-2.4
Cc1n[nH]c(C2CN(CCc3cccs3)CCO2)n1 (centres undefined)	-15.8
CCN1CCC(NC(=O)CNC(C)Cn2cccn2)CC1 (centres undefined)	9.19
Cn1cc(CN2CCn3cc(CNC(=O)C4CCC4)nc3C2)cn1	-6.66
CCCOC1CCCN(C(=O)c2cc(CN(CC)CC)c(CC)o2)C1 (centres undefined)	10.1
O=C1NCCCCC1SCc1coc(-c2ccc(F)cc2)n1 (centres undefined)	47.5
COc1cccc(CNc2cc(CO)ccc2Cl)c1	-13.3

// next item, cytotoxicity at 10 µM requested
compound `CCn1cnnc1CNC(=O)N1CCC(C)CC1` , cytotoxicity at 10 µM observed: 2.64

* * *

Experiment: Toxicity liver stage against HepG2, at 10uM
Type: cell-based
Design: test concentration 10 uM, cell line HepG2-A16-CD81EGFP
Conditions: human, HepG2-A16-CD81EGFP cells; read-out: INHIBITION
METRIC NAME: cytotoxicity at 10 µM (%)
Report the value in % with no unit label.

COMPOUND	READOUT UNIT	cytotoxicity at 10 µM
COCCN(C)CC1CCCN1S(=O)(=O)c1cccc(F)c1F (centres undefined)	%	4.93
COC(=O)C(NC(=O)CCc1ccco1)c1cc(F)ccc1F (centres undefined)	%	-0.448
Cc1csc(C(=O)N2CCCC(c3[nH]ncc3S(C)(=O)=O)C2)c1 (centres undefined)	%	-3.17

Could you now consider this next compound?
Record summary for `CC(C)N(C(=O)Cn1cc(Cl)cn1)c1ccccc1` : reported cytotoxicity at 10 µM = -1.18

* * *

Test: Toxicity liver stage against HepG2, at 10uM
Format: cell-based
Design: test concentration 10 uM, cell line HepG2-A16-CD81EGFP
Details: human, HepG2-A16-CD81EGFP cells; read-out: INHIBITION
METRIC NAME: cytotoxicity at 10 µM (%)
Give the value, in units of %, as a plain number.

Use the examples below as a reference point.
MOLECULE	METRIC NAME	READOUT UNIT	TEST VALUE
CC(C)C(=O)N1CCC(c2nc3ccccn3c2NC(C)(C)C)CC1	cytotoxicity at 10 µM	%	5.86
CS(=O)(=O)N1C[C@H](C(=O)Nc2cnccn2)C[C@H]2OCC[C@H]21	cytotoxicity at 10 µM	%	10.7

Short answer for `Cc1cc(NCCC(=O)NC(C)C)nc(-c2ccncc2)n1` : cytotoxicity at 10 µM was -6.74

Lab book: cytotoxicity at 10 µM of O=C(c1cnccn1)N1CCCC2(CCN(Cc3ccc(F)cc3)C2)C1 (stereo not given) noted as -153

// cytotoxicity at 10 µM lookup, molecule = COc1ccc(CN2CCC3(CC2)CC(c2cccnc2)CO3)cc1 (stereo not given) , result: -0.259

Just so you know, measured cytotoxicity at 10 µM for `Cc1noc(C)c1CN1CC[C@H]2C[C@H](c3nccs3)O[C@@H]2C1` came out at -70.7

// field: cytotoxicity at 10 µM; key: `CN1CCC(N(CCc2ccccc2)Cc2noc(C3CC3)n2)CC1` ; value = -3.49

The value of cytotoxicity at 10 µM measured for the molecule `O=C1NC(c2ccccc2)=N[C@@]12CC[C@@H]1CN(CC3CC3)C[C@@H]12` turned out to be 9.79

Reported cytotoxicity at 10 µM ( Cn1cc(CN2CCC3(CCCN(C(=O)c4cscn4)C3)C2)cn1 (stereo not given) ) = 1.71

Form: molecule = `CNS(=O)(=O)c1ccc(CNC(=O)N(CC(C)C)C(C)C)cc1` ; cytotoxicity at 10 µM = 4.5

* * *

Test: Toxicity liver stage against HepG2, at 10uM
Type: cell-based
Parameters: test concentration 10 uM, cell line HepG2-A16-CD81EGFP
Details: human, HepG2-A16-CD81EGFP cells; read-out: INHIBITION
Below, each entry is listed alongside its reported cytotoxicity at 10 µM.
Express the result in % but write the number alone.

Solved cases below.
COMPOUND	cytotoxicity at 10 µM, %
COC(=O)c1ccc2ccn(CC3CCNC3)c(=O)c2c1 (stereo unspecified)	-28
CCc1nc(CN2CCN(C(=O)c3csc(C(C)C)n3)CC2)no1	11.3
Cc1ccc(NC(=O)NCCc2ccncc2C)c(N(C)C)n1	12.9
N#Cc1ccc(CN2CCCN(CCCn3cncn3)CC2)cc1	-2.89
CN(C)CCN1CCC2(CCN(C(=O)c3cccc(F)c3)CC2)C1=O	-6.19
O=c1ccc2c(n1Cc1cccnc1)CCC(NCc1cccnc1)C2 (stereo unspecified)	19.2
CCN(CC)C(=O)Cn1cc(C(=O)NCCc2scnc2C)nn1	-4.47
Cc1nnc(NC(=O)NCc2ccc(N3CCNC(=O)C3)cc2)s1	-1.26

Short answer for O=C1CSC(c2ccc(O)cc2)c2c(n(C3CCOCC3)[nH]c2=O)N1 (stereo unspecified) : cytotoxicity at 10 µM was 2.84

Form field cytotoxicity at 10 µM, entry `Cc1cc2nc(CO[C@H]3CN(CC4CC4)C[C@H]3F)[nH]c2cc1C` : 1.04

Documented cytotoxicity at 10 µM of `CCN(CC)C(=O)CCCNC(=O)c1csc(NC2CC2)n1` : 8.67

* * *

Assay: Toxicity liver stage against HepG2, at 10uM
Type: cell-based
Design: test concentration 10 uM, cell line HepG2-A16-CD81EGFP
Details: human, HepG2-A16-CD81EGFP cells; read-out: INHIBITION
METRIC NAME: cytotoxicity at 10 µM (%)
Supply the numeric figure in %, leaving out any unit text.

COMPOUND	cytotoxicity at 10 µM / %
CCn1cnnc1CN(C)C(=O)C1CCC(=O)N(CC2CCCCC2)C1 (stereo unspecified)	-1.33
Cc1ccc(NC2CCN(C(=O)COc3cccc(F)c3)CC2)nn1	3.11
c1ccc2c3c([nH]c2c1)CN(Cc1cc2n(n1)CCNC2)CC3	3.06

Data point: `COc1nccnc1N1CCC(C(=O)O)(n2ccc(C(C)(C)C)n2)CC1` ; cytotoxicity at 10 µM = -4.05

compound `CN1CCN(C2CCN(CCOc3ccccc3)CC2)C1=O` , cytotoxicity at 10 µM observed: -2.15

compound CCNC(=O)C1CCCN(c2ccc(C#N)cc2C(F)(F)F)C1 (stereo unspecified) , cytotoxicity at 10 µM observed: 1.28

* * *

Entries and their cytotoxicity at 10 µM values follow.
Assay: Toxicity liver stage against HepG2, at 10uM
Format: cell-based
Parameters: test concentration 10 uM, cell line HepG2-A16-CD81EGFP
Conditions: human, HepG2-A16-CD81EGFP cells; read-out: INHIBITION
Entry rule: numbers only, all in %.

Notebook: CN(CCCc1cnn(C)c1)C(=O)C1CCOC1 (stereo unspecified) , cytotoxicity at 10 µM read as -13.4

* * *

Test: Toxicity liver stage against HepG2, at 10uM
Format: cell-based
Parameters: test concentration 10 uM, cell line HepG2-A16-CD81EGFP
Details: human, HepG2-A16-CD81EGFP cells; read-out: INHIBITION
Measured cytotoxicity at 10 µM by item
The reply should contain only the number, in %.

COMPOUND	READOUT UNIT	TEST VALUE
CCOCC(=O)N1CCC(c2nccn2CC2CC2)CC1	%	-7.18

cytotoxicity at 10 µM measured on CCC1c2ccccc2CCN1CCNS(C)(=O)=O (stereo not drawn) = 5.56

Quick note, cytotoxicity at 10 µM for O=C1CN(C(=O)OCc2ccccc2)CC(O)CN1Cc1ccco1 (stereo not drawn) landed at -9.92

Reported cytotoxicity at 10 µM for `CCOc1ncccc1NC(=O)c1cc(C)sc1C` was -6.81

Entry `CCc1nnc2sc(-c3cc(C(C)C)n[nH]3)nn12` — recorded cytotoxicity at 10 µM = -7.37

Value of measured cytotoxicity at 10 µM for the entry `CC(=O)c1cc(CN2CCCC23CCN(c2ccccn2)CC3)cs1` : -7.69

Given item `CC(C)(C)OC(=O)NC(C)(C)c1noc(CSc2ccccn2)n1` , the value recorded as its cytotoxicity at 10 µM is 9.18

Entry `O=S(=O)(N1CCCC1)N1CC(c2ccnc(Nc3ccccn3)n2)C1` — recorded cytotoxicity at 10 µM = 11.8

// cytotoxicity at 10 µM lookup, compound = `CC(C)(C)NC(=O)N1CCC(Oc2ccc(C(F)(F)F)cn2)CC1` , result: 6.91

cytotoxicity at 10 µM measured on CC1(Cc2ccccn2)NCCc2[nH]cnc21 (stereo not drawn) = -5.18

cytotoxicity at 10 µM recorded for this compound, `CC(=O)N1CCC(n2nccc2-c2cnc(NCCO)nc2)CC1` , is -1

Entry `Cc1noc([C@@H]2C[C@H]3OCC[C@H]3N(S(=O)(=O)c3cccnc3)C2)n1` — recorded cytotoxicity at 10 µM = -12.5

The value of cytotoxicity at 10 µM measured for the compound CC(NS(C)(=O)=O)C(=O)Nc1ccc2oc(C3CC3)nc2c1 (stereo not drawn) turned out to be 2.78

Record summary for `Cc1ccc(-n2cc3[nH]c(=O)[nH]n3c2=O)cc1` : reported cytotoxicity at 10 µM = 1.22
